- procedure_summary: Rat pharmacokinetic assay
- Format: in vivo
- condition_parameters: male, Sprague-Dawley, plasma, iv 1 mg/kg, read-out: Vd
endpoint_label: Vd
Number first, unit second.

Query: # Vd lookup, item CC#CC(=O)N1CCCC[C@H]1c1nc(-c2ccc(C(=O)Nc3cc(C(F)(F)F)ccn3)cc2)c(C(N)=O)n1N [Example 85]
Reply: 8.62 L/kg

* * *

- procedure_summary: Rat pharmacokinetic assay
- Assay type: in vivo
- condition_parameters: male, Sprague-Dawley, plasma, iv 5 mg/kg
endpoint_label: clearance (mL/min/kg)
Answers are plain numbers, in mL/min/kg.

Query: # clearance lookup, item C=CC(=O)N1CCCC[C@H]1c1nc(-c2ccc(C(=O)Nc3cc(C(F)(F)F)ccn3)cc2)c(C(N)=O)n1N [Example 84]
Reply: 13.4
